# Tested on: KG-1
# test description: Antiproliferative activity against human KG-1 cells assessed as growth inhibition incubated at 10 uM for 24 hrs by MTT assay relative to control
# Assay type: functional
# test settings: read-out: GI
measured metric: inhibition of growth at 10 µM (%)
Just the number in %, nothing appended.

As a guide, the following entries are already answered.
>  <chemical structure>
COc1ccc(Cc2nnc(N3CCN(C(=S)Nc4cccc(Cl)c4)CC3)c3ccccc23)cc1

>  <unit string>
%

>  <inhibition of growth at 10 µM>
74.2

$$$$
>  <chemical structure>
COc1ccc(Cc2nnc(N3CCN(C(=S)Nc4ccc(OC)cc4)CC3)c3ccccc23)cc1

>  <unit string>
%

>  <inhibition of growth at 10 µM>
23.9

$$$$
>  <chemical structure>
S=C(Nc1ccccc1)N1CCN(c2nnc(Cc3ccccc3)c3ccccc23)CC1

>  <unit string>
%

>  <inhibition of growth at 10 µM>
61.9

$$$$
>  <chemical structure>
COc1ccc(C(=O)N2CCN(c3nnc(Cc4ccccc4)c4ccccc34)CC2)cc1

>  <unit string>
%

>  <inhibition of growth at 10 µM>
0.91

$$$$
>  <chemical structure>
O=C(Nc1ccccc1)N1CCN(c2nnc(Cc3ccccc3)c3ccccc23)CC1

>  <unit string>
%

>  <inhibition of growth at 10 µM>
29.7

$$$$
>  <chemical structure>
S=C(Nc1cccc(Cl)c1)N1CCN(c2nnc(Cc3ccccc3)c3ccccc23)CC1

>  <unit string>
%

>  <inhibition of growth at 10 µM>
69.1

$$$$
>  <chemical structure>
COc1ccc(NC(=S)N2CCN(c3nnc(Cc4ccccc4)c4ccccc34)CC2)cc1

>  <unit string>
%

>  <inhibition of growth at 10 µM>
1.36

$$$$
>  <chemical structure>
O=C(c1ccc(Cl)cc1)N1CCN(c2nnc(Cc3ccccc3)c3ccccc23)CC1

>  <unit string>
%

>  <inhibition of growth at 10 µM>
8.36

$$$$

Now look at this entry.
Please look up its inhibition of growth at 10 µM: `COc1ccc(Cc2nnc(N3CCN(C(=O)Nc4ccccc4)CC3)c3ccccc23)cc1`
49.7

====

# target entity: Cyclin-dependent kinase 5 (Homo sapiens)
# Sequence (Q00535 whole entry): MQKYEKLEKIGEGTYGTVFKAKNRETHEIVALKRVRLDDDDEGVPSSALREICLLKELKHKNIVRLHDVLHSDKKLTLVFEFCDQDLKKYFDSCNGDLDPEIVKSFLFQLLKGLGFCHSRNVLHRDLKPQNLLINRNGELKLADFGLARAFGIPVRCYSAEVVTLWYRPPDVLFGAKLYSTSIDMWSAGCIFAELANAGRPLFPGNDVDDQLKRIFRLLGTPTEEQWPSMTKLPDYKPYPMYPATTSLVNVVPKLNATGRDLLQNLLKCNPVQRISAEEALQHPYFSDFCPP
measured metric: pIC50
Scale explanation: pIC50 corresponds to minus log10 of a concentration expressed in moles per litre.

>  <chemical structure>
COc1ccc(Cc2nnc(N3CCN(C(=O)Nc4ccccc4)CC3)c3ccccc23)cc1

>  <pIC50>
6.22

$$$$
>  <chemical structure>
COc1ccc(NC(=O)N2CCN(c3nnc(Cc4ccccc4)c4ccccc34)CC2)cc1

>  <pIC50>
6.55

$$$$
>  <chemical structure>
COc1ccc(C(=O)N2CCN(c3nnc(Cc4ccccc4)c4ccccc34)CC2)cc1

>  <pIC50>
6.22

$$$$
>  <chemical structure>
O=C(Nc1ccccc1)N1CCN(c2nnc(Cc3ccccc3)c3ccccc23)CC1

>  <pIC50>
6.80

$$$$

Now look at this entry.
What reported pIC50 corresponds to `COc1ccc(Cc2nnc(N3CCN(C(=O)Nc4ccc(Cl)c(C(F)(F)F)c4)CC3)c3ccccc23)cc1` on Cyclin-dependent kinase 5 (Homo sapiens)?
6.43

====

# test description: Antiproliferative activity against human MDA-PATC53 cells assessed as growth inhibition incubated at 10 uM for 24 hrs by MTT assay relative to control
# Assay type: functional
# test settings: read-out: GI
Lab note: anything with inhibition of growth at 10 µM at or over 80% counts as met; the rest go in not met.

>  <chemical structure>
S=C(Nc1cccc(Cl)c1)N1CCN(c2nnc(Cc3ccccc3)c3ccccc23)CC1

>  <class name>
met

$$$$
>  <chemical structure>
O=C(Nc1ccc(Cl)cc1)N1CCN(c2nnc(Cc3ccccc3)c3ccccc23)CC1

>  <class name>
not met

$$$$
>  <chemical structure>
COc1ccc(Cc2nnc(N3CCN(C(=O)Nc4ccccc4)CC3)c3ccccc23)cc1

>  <class name>
not met

$$$$
>  <chemical structure>
S=C(Nc1ccc(Cl)cc1)N1CCN(c2nnc(Cc3ccccc3)c3ccccc23)CC1

>  <class name>
not met

$$$$

Hello, I need to know if `O=C(c1ccccc1)N1CCN(c2nnc(Cc3ccccc3)c3ccccc23)CC1` has measured inhibition of growth at 10 µM not below 80%. Thanks!
not met

Hello, I need to know if `COc1ccc(Cc2nnc(N3CCN(C(=S)Nc4ccccc4)CC3)c3ccccc23)cc1` has measured inhibition of growth at 10 µM not below 80%. Thanks!
not met

Hello, I need to know if `COc1ccc(Cc2nnc(N3CCN(C(=S)Nc4cccc(Cl)c4)CC3)c3ccccc23)cc1` has measured inhibition of growth at 10 µM not below 80%. Thanks!
met

Hello, I need to know if `COc1ccc(Cc2nnc(N3CCN(C(=O)c4ccccc4)CC3)c3ccccc23)cc1` has measured inhibition of growth at 10 µM not below 80%. Thanks!
not met

Hello, I need to know if `COc1ccc(Cc2nnc(N3CCN(C(=S)Nc4ccc(OC)cc4)CC3)c3ccccc23)cc1` has measured inhibition of growth at 10 µM not below 80%. Thanks!
not met

Hello, I need to know if `O=C(Nc1ccc(Cl)c(C(F)(F)F)c1)N1CCN(c2nnc(Cc3ccccc3)c3ccccc23)CC1` has measured inhibition of growth at 10 µM not below 80%. Thanks!
not met
